Origin of measurements: patent US20180326085A1

target: T1, EGFR on cells (human, UniProt P00533)
T1 construct: endogenous receptor on the cell surface; for A549 cells m5 is used; also called on NCI-H441, EBC-1, A431, MKN-45, HepG2 or T47D cells (cell line under assay)
testName: flow cytometry, EBC-1 cells (c-MET+++ EGFR++)
resultType: MFI at 100 nM
Format: numeric value only, no unit, no commentary.

Solved cases (3 shown):
[
  {
    "binder": "oa 225-L (antibody, V domains shown, one-armed (monovalent) anti-EGFR SEED molecule) VH: EVQLVQSGAEVKKPGASVKVSCKASGFSLTNYGVHWMRQAPGQGLEWIGVIWRGGNTDYNTPFTSRVTITSDKSTSTAYMELSSLRSEDTAVYYCARALTYYDYEFAYWGQGTLVTVSS VL: DIQMTQSPSSLSASVGDRVTITCRASQSIGTNIHWYQQKPGKAPKLLIKYASESISGVPSRFSGSGYGTDFTLTISSLQPEDVATYYCQQNNNWPTTFGQGTKVEIK",
    "MFI at 100 nM": 137
  },
  {
    "binder": "oa 225-H (antibody, V domains shown, one-armed (monovalent) anti-EGFR SEED molecule) VH: EVQLVQSGAEVKKPGASVKVSCKASGFSLTNYGVHWMRQAPGQGLEWIGVIWSGGNTDYNTPFTSRVTITSDKSTSTAYMELSSLRSEDTAVYYCARALDYYDYEFAYWGQGTLVTVSS VL: DIQMTQSPSSLSASVGDRVTITCRASQSIGTNIHWYQQKPGKAPKLLIKYASESISGVPSRFSGSGYGTDFTLTISSLQPEDVATYYCQQNNEWPNTFGQGTKVEIK",
    "MFI at 100 nM": 287
  },
  {
    "binder": "oa 425 (antibody, V domains shown, one-armed (monovalent) anti-EGFR SEED molecule) VH: QVQLVQSGAEVKKPGASVKVSCKASGYTFTSHWMHWVRQAPGQGLEWIGEFNPSNGRTNYNEKFKSKATMTVDTSTNTAYMELSSLRSEDTAVYYCASRDYDYDGRYFDYWGQGTLVTVSS VL: DIQMTQSPSSLSASVGDRVTITCSASSSVTYMYWYQQKPGKAPKLLIYDTSNLASGVPSRFSGSGSGTDYTFTISSLQPEDIATYYCQQWSSHIFTFGQGTKVEIKR",
    "MFI at 100 nM": 212
  }
]

# ---- query binder ----
[ask] Supply measured MFI at 100 nM of oa225-M (antibody, V domains shown, one-armed (monovalent) anti-EGFR SEED molecule) VH: EVQLVQSGAEVKKPGASVKVSCKASGFSLTNYGVHWMRQAPGQGLEWIGVIWSGGNTDYNTPFTSRVTITSDKSTSTAYMELSSLRSEDTAVYYCARALTYYDYEFAYWGQGTLVTVSS VL: DIQMTQSPSSLSASVGDRVTITCRASQSIGTNIHWYQQKPGKAPKLLIKYASESISGVPSRFSGSGYGTDFTLTISSLQPEDVATYYCQQNYNWPTTFGQGTKVEIK in your reply.
[reply] 189
